- Test system: Trichoderma virens ATCC 9645
- assay summary: growth yield (OD600) with compound + IPBC relative to untreated control; higher = less growth inhibition
- study conditions: compound concentration: 100 uM; IPBC concentration: 200 ng/ml; 72 h
Structures can show the parent of a compound that is named as a salt. Hit rate of the full screen: of about 1,300 compounds, about 130 (10%) showed an effect of 50% or more. The list comes from a sample in which strong results are over-represented; it also holds close analogues and randomly drawn compounds.
Would you mind telling me the reported growth yield of each entry?
Answers are plain numbers, in %.

// each molecule listed below needs its growth yield
1. Cc1cccn2c(=O)c(-c3nnn[nH]3)cnc12 [Pemirolast potassium] + CCCCNC(=O)OCC#CI [3-iodo-2-propynyl butylcarbamate (IPBC)]
2. N=C(N)N1CCc2ccccc2C1 [Debrisoquin sulfate] + CCCCNC(=O)OCC#CI [3-iodo-2-propynyl butylcarbamate (IPBC)]

Result:
1. 84.4
2. 96.9

Request: Name the reported growth yield value associated with the molecule C[C@@H]1C[C@@H]([C@H](O)CC2CC(=O)NC(=O)C2)C(=O)[C@@H](C)C1 [Cycloheximide] + CCCCNC(=O)OCC#CI [3-iodo-2-propynyl butylcarbamate (IPBC)]
Result: 85.7
